TARGET_ENTITY: T1, human TIGIT-His antigen (human, UniProt Q495A1 22-141)
T1 construct: not shown: His tag
T1 chain: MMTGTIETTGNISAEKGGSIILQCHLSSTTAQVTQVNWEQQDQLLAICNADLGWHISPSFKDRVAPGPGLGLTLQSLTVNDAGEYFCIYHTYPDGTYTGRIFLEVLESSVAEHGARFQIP
ASSAY_DETAILS: Octet (BLI), human TIGIT-HIS on penta-His sensor, antibody in solution
The following binders are shown together with reported kon values.
ASSAY_READOUT: kon (M⁻¹ s⁻¹)

binder="1E8 (IgG-type anti-TIGIT antibody) (antibody, V domains shown, section 4.2 is headed 'Conversion to IgG4-Type Anti-TIGIT Antibodies') VH: QVQLVQSGTEVKKPGASVKVSCKASGYTFSSYAITWVRQAPGQGLEWMGWISAYNGNTNYAQKLQGRVTMTTDTSTSTAYMELRSLRSDDTAVYYCARVDFWSGYNYFDYWGQGTLVTVSS VL: DIQMTQSPSSLSASVGDRVTITCRASQGISNYLAWYQQKPGKVPKVLIYAASTLQSGVPSRFSGSGSGTDFTLTISSLQPEDVATYYCQKSNSAPLTFGGGTKVEIKR" assay_readout=kon readout_units="M⁻¹ s⁻¹" endpoint_result=563000
binder="1F10 (IgG-type anti-TIGIT antibody) (antibody, V domains shown, section 4.2 is headed 'Conversion to IgG4-Type Anti-TIGIT Antibodies') VH: EVQLVESGGGLVKPGGSLRISCAASGFTFSNYNMIWVRQAPGKGLEWVSSISSSASYIYYADSVKGRFTISRDNAKNSLYLQMNSLRAEDTAVYYCARDEGSRDSWNNGPYYYSGMDVWGQGTTVTVSS VL: AIQMTQSPSSLSASVGDRVTITCRASQSISRYLNWYQHKPGKAPKLLIYGASSLQSGVPSRFRGSGSGTDFTLTISSLQPEDFATYYCQQSYTTPGAFTFGGGTKVEIKR" assay_readout=kon readout_units="M⁻¹ s⁻¹" endpoint_result=176000
binder="WIN_1B6 (IgG-type anti-TIGIT antibody) (antibody, V domains shown, section 4.2 is headed 'Conversion to IgG4-Type Anti-TIGIT Antibodies') VH: QVQLVQSGAEVKKPGASVKVSCKASGYTFTSYGISWVRQAPGQGLEWMGWISAYNGNTNYAQKLQGRVTMTTDTSTSTAYMELRSLRSDDTAVYYCARAGWEQQLGFDYWGQGTLVTVSS VL: AIQLTQSPSSLSASVGDRVTISCRASQTIRSYLNWYQQKPGKAPKLLIYAASSLQSGVPLRFSGSGSGTDFTLTISSLQPEDFATYYCQQSYSTLPLTFGGGTKVEIKR" assay_readout=kon readout_units="M⁻¹ s⁻¹" endpoint_result=465000
binder="WIN_1D2 (IgG-type anti-TIGIT antibody) (antibody, V domains shown, section 4.2 is headed 'Conversion to IgG4-Type Anti-TIGIT Antibodies') VH: QVQLVQSGAEVKKPGASVKVSCKASGYTFTSYGISWVRQAPGQGLEWMGWISAYNGNTNYAQKLQGRVTMTTDTSTSTAYMELRSLRSDDTAVYYCARAGWEQQLGFDYWGQGTLVTVSS VL: AIQLTQSPSSLSASVGDRVTITCRASQSISSYLNWYQQKPGKAPKLLIYAASSLQSGVPSRFSGSGSGTDFTLTISSLQPEDFATYYCQQSYSTLAITFGQGTRLEIKR" assay_readout=kon readout_units="M⁻¹ s⁻¹" endpoint_result=488000
